- study_target: recombinant human HGF (R&D Systems, Catalog No. 294-HGN-025) (human, UniProt P14210 32-728)
- Sequence (P14210 32-728): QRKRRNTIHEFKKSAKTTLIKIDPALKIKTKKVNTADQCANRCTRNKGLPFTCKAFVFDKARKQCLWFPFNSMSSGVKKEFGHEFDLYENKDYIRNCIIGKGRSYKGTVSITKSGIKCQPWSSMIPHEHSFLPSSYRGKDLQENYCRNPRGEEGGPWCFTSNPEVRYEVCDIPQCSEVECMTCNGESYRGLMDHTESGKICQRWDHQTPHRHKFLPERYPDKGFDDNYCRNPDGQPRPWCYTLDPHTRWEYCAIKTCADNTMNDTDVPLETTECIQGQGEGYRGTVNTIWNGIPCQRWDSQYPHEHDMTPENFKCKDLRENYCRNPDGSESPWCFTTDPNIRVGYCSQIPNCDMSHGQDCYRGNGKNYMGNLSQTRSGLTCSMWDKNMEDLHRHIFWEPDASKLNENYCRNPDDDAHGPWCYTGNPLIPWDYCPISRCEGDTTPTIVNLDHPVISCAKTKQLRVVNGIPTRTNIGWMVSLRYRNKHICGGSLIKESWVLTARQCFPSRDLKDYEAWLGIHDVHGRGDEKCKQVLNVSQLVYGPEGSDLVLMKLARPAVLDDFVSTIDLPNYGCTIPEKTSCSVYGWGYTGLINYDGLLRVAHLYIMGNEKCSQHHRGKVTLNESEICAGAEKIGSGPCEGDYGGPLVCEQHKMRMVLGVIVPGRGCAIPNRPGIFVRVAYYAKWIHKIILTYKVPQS
- assay_procedure: SPR
Kd values by entry
Quick note: give the figure in nM, leave out the unit.

Would you mind telling me what Kd value was observed for Hu2B8_Kv3-15.1 / Hu2B8_Hv5-a.1 (antibody, V domains shown) VH: EVQLVQSGAEVKKPGESLRISCKGSGYSFTTYWMHWVRQMPGKGLEWMGEINPTNGHTNYNPSFQGHVTISADKSISTAYLQWSSLKASDTAMYYCARNYVGSIFDYWGQGTLVTVSS VL: EIVMTQSPATLSVSPGERATLSCKASENVVSYVSWYQQKPGQAPRLLIYGASNRNTGIPARFSGSGSGTEFTLTISSLQSEDFAVYYCGQSYNYPYTFGQGTKLEIKR ?
0.0269

Query (binder): Chimeric 2B8 / Hu2B8_Hv5-a.1 (antibody, V domains shown) VH: EVQLVQSGAEVKKPGESLRISCKGSGYSFTTYWMHWVRQMPGKGLEWMGEINPTNGHTNYNPSFQGHVTISADKSISTAYLQWSSLKASDTAMYYCARNYVGSIFDYWGQGTLVTVSS VL: NIVMTQSPKSMSMSVGERVTLSCKASENVVSYVSWYQQKPAQSPKLLIYGASNRNTGVPDRFTGSGSATDFTLTISSVRAEDLADYHCGQSYNYPYTFGGGTRLEIKR ; field requested: Kd
0.0044

Any idea what Kd was measured for Hu2B8_Kv1-39.1 / Hu2B8_Hv1-f.1 (antibody, V domains shown) VH: EVQLVQSGAEVKKPGATVKISCKVSGYTFTTYWMHWVQQAPGKGLEWMGEINPTNGHTNYNEKFQGRVTITADTSTDTAYMELSSLRSEDTAVYYCATNYVGSIFDYWGQGTLVTVSS VL: DIQMTQSPSSLSASVGDRVTITCKASENVVSYVSWYQQKPGKAPKLLIYGASNRNTGVPSRFSGSGSGTDFTLTISSLQPEDFATYYCGQSYNYPYTFGQGTKLEIKR ?
0.294

Returns the measured Kd for the input binder. Input: Chimeric 2B8 / Hu2B8_Hv1-f.1 (antibody, V domains shown) VH: EVQLVQSGAEVKKPGATVKISCKVSGYTFTTYWMHWVQQAPGKGLEWMGEINPTNGHTNYNEKFQGRVTITADTSTDTAYMELSSLRSEDTAVYYCATNYVGSIFDYWGQGTLVTVSS VL: NIVMTQSPKSMSMSVGERVTLSCKASENVVSYVSWYQQKPAQSPKLLIYGASNRNTGVPDRFTGSGSATDFTLTISSVRAEDLADYHCGQSYNYPYTFGGGTRLEIKR
0.662

---
State the recorded Kd for this entry: Hu2B8_Kv1-39.1 / Chimeric 2B8 (antibody, V domains shown) VH: QVQLQQPGAELVKPGTSVKLSCKASGYTFTTYWMHWVNQRPGQGLEWIGEINPTNGHTNYNEKFKSKATLTVDKSSSTAYMQLSSLTSEDSAVYYCARNYVGSIFDYWGQGTTLTVSS VL: DIQMTQSPSSLSASVGDRVTITCKASENVVSYVSWYQQKPGKAPKLLIYGASNRNTGVPSRFSGSGSGTDFTLTISSLQPEDFATYYCGQSYNYPYTFGQGTKLEIKR
0.0136
